# measured-target: Histamine H1 receptor (Homo sapiens)
# Sequence (P35367 whole entry): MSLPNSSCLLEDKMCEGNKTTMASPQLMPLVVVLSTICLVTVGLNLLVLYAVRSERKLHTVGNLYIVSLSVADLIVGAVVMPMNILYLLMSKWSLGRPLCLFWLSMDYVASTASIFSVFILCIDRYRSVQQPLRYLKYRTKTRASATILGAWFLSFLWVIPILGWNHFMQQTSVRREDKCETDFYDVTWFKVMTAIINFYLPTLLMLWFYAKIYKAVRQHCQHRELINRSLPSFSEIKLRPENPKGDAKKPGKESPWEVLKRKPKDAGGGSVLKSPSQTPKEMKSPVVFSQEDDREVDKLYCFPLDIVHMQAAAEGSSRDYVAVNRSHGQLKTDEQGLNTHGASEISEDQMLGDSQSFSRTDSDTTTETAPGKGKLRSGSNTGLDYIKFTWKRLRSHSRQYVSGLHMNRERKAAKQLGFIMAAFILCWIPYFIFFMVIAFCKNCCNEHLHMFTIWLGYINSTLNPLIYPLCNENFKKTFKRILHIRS
# Assay type: ADME
# Description: Binding affinity to histamine H1 receptor (unknown origin)
property-measured: Ki (nM)

Use the examples below as a reference point.
# smiles-str, unit-annotation, data-value
rows = [
    ("Fc1ccc2c(C3CCN(CCCOc4ccc(CCN5CCOCC5)cc4)CC3)noc2c1", "nM", 968),
    ("Fc1ccc2c(C3CCN(CCCOc4ccc(CCN5CCCCC5)cc4)CC3)noc2c1", "nM", 1020),
]

(A) O=c1ccc(OCCCN2CCC(c3noc4cc(F)ccc34)CC2)nn1-c1c(F)cccc1F
(B) CN1CCN(Cc2ccc(OCCCCN3CCC(c4noc5cc(F)ccc45)CC3)cc2)CC1
Lowest Ki? choose A or B Answer by stating the label of the chosen item.
B
(B: 642 nM, A: 2000 nM)
